target_desc: native human MET on living cells (human, UniProt P08581 25-1390)
Sequence (P08581 25-1390): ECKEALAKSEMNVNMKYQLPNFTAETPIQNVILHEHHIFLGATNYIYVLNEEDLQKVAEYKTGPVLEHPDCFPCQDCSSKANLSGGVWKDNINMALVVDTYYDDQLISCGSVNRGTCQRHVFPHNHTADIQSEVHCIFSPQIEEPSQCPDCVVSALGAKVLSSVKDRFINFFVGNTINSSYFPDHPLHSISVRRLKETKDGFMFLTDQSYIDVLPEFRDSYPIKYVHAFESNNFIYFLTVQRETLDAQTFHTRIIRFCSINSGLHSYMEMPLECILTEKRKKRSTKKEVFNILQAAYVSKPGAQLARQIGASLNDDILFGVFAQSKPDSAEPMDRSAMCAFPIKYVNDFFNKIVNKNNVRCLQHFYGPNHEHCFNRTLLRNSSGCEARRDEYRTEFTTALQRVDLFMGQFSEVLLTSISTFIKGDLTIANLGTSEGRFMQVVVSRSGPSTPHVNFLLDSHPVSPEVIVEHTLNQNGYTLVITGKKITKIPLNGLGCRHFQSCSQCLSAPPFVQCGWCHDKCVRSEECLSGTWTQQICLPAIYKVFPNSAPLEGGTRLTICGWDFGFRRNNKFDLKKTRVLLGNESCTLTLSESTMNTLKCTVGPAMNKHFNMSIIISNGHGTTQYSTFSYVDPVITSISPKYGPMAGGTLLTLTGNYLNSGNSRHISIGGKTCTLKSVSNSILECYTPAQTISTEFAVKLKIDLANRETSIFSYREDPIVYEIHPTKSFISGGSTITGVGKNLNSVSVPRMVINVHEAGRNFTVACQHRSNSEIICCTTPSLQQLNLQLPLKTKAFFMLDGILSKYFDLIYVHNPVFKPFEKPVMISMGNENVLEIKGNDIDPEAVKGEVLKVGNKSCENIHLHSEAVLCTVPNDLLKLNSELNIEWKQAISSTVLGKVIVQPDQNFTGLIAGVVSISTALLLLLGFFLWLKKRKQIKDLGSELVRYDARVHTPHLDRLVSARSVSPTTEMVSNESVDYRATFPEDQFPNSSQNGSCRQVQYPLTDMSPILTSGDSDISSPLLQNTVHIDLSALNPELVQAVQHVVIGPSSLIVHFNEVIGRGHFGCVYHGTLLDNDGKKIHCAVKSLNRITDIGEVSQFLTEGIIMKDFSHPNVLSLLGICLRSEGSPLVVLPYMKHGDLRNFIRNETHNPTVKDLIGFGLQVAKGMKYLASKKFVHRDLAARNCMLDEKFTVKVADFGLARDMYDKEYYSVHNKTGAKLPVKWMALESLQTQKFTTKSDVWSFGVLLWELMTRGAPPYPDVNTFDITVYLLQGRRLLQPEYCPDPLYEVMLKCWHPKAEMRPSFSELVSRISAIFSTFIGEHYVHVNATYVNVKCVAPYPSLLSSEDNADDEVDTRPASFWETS
experiment_summary: cell-based or functional assay
// reported scatter score 0-4, HPAF-II, 0.004 nM for each item listed
endpoint_name: scatter score 0-4, HPAF-II, 0.004 nM (score)

binder="76H10 chimeric llama-human IgG1 mAb (antibody, V domains shown, llama VH on human IgG1 CH1-CH2-CH3, llama VL on human lambda CL) VH: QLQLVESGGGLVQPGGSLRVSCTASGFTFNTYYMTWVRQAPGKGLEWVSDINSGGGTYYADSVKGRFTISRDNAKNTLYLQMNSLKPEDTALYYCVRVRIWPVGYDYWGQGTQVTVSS VL: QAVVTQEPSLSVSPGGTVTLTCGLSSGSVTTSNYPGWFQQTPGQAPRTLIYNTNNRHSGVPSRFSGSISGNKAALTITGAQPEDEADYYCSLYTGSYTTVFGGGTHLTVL" endpoint_unit=score result_number=0
binder="74C8 chimeric llama-human IgG1 mAb (antibody, V domains shown, llama VH on human IgG1 CH1-CH2-CH3, llama VL on human lambda CL) VH: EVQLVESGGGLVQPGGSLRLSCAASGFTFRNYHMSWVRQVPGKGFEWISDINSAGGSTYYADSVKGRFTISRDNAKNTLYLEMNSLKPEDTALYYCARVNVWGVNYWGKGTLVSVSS VL: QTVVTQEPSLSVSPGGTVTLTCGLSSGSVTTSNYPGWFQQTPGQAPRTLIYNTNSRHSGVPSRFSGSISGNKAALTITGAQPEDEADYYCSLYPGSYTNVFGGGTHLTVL" endpoint_unit=score result_number=0
binder="71G2 chimeric llama-human IgG1 mAb (antibody, V domains shown, llama VH on human IgG1 CH1-CH2-CH3, llama VL on human lambda CL) VH: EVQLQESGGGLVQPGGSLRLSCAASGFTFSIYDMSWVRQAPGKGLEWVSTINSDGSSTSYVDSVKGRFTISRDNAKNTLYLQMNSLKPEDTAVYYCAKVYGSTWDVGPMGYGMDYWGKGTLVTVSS VL: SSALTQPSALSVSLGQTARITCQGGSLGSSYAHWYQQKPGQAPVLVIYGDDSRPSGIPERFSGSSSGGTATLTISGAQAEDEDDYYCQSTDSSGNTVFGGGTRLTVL" endpoint_unit=score result_number=1
